- System: 20-HETE formation (CYP4) in RLM
- ASSAY PROTOCOL: Inhibition of 20-HETE formation at 250 or 500 nM in RLM microsomal incubations
- Type: biochemical, rat
- ASSAY SETUP: 500 nM compound; RLM 300 μg/ml

SMILES STRUCTURE | MEASURE UNIT | RLM % inh. @ 500 nM
COc1cc(F)cc(C2CCN(c3cn[nH]c3)CC2)c1 | % | 11.00
Cc1cc(N2CCC(c3ccccc3)CC2)[nH]n1 | % | 0.00
CC(=O)N(C)c1ccc(C2CCN(c3cn[nH]c3)CC2)c(F)c1 | % | 27.70
O=S1(=O)Cc2ccc(C3CCN(c4cn[nH]c4)CC3)cc2C1 | % | 41.70
c1ccc(SC2CCN(c3cn[nH]c3)CC2)cc1 | % | 7.80
COc1ccccc1C1CCN(c2cn[nH]c2)CC1 | % | 0.00
COc1cc(CC2CCN(c3ccn[nH]3)CC2)ccn1 | % | 0.00
O=C1CCCN1Cc1ccc(C2CCN(c3ccn[nH]3)CC2)cc1F | % | 63.60
COc1ccc(C2CCN(c3cn[nH]c3)CC2)cc1F | % | 42.00
c1cnc(C2CCN(c3ccn[nH]3)CC2)nc1 | % | 0.00
Nc1ccc(C2CCN(c3cn[nH]c3)CC2)cc1 | % | 17.00
Fc1ccccc1C1CCN(c2ccn[nH]2)CC1 | % | 16.00
COc1ccc(CC2CCN(c3ccn[nH]3)CC2)cc1 | % | 4.00
COc1ccc(C2CCN(c3ccn[nH]3)CC2)cn1 | % | 0.00
COC(=O)c1cccc(C2CCN(c3cn[nH]c3)CC2)c1 | % | 43.10
COc1cccc(C2CCN(c3ccn[nH]3)CC2)c1 | % | 42.30
c1ccc(N2CCN(c3cn[nH]c3)CC2)cc1 | % | 0.00
COc1cncc(C2CCN(c3cn[nH]c3)CC2)c1 | % | 64.40

Origin of measurements: patent US12479816B2
